Test system: CCRF-CEM leukemia
Test: NCI-60 one-dose screen, 48 h (100 = growth as untreated, 0 = no growth, -100 = all killed)
Settings: 10 µM unless noted
Compounds without any hit were thinned out: in the full panel of roughly 83,000, 20% have a hit.
Reported growth values for the following molecules.
Supply the numeric figure in %, leaving out any unit text.

Known growth results, listed for orientation:
Molecule | growth / %
CN1CCN(c2ccc(Nc3nc(NCCNS(=O)(=O)c4ccc5ccccc5c4)c4sccc4n3)cc2)CC1 | 41.9
Cc1ccc(S(=O)(=O)NCCCNc2nc(Nc3ccc(N4CCN(C)CC4)cc3)nc3ccsc23)cc1 | 18.1
CN1c2ccccc2Sc2cc(/C=N/Nc3ccnc4cc(Cl)ccc34)ccc21 | 56.2
Cc1csc(/N=C(N)/N=C(\N)c2cccs2)n1 | 110

Fill in growth for record `C#CCOc1cccc(/C(N)=N/C(N)=N/c2nc3ccccc3s2)c1`
76.5

Fill in growth for record `O=C(N/N=C\c1ccc([N+](=O)[O-])cc1)c1ccc2nc(-c3ccc(Br)cc3)[nH]c2c1`
10.6

Fill in growth for record `CCOP(=O)(OCC)OC[C@]12CCC(C)(C)C[C@H]1C1=CC[C@@H]3[C@@]4(C)CC[C@H](OP(=O)(OCC)OCC)C(C)(C)[C@@H]4CC[C@@]3(C)[C@]1(C)CC2`
49.2

Fill in growth for record C#CCOc1ccccc1C(OC(=O)c1ccccc1)C(=O)NC(C)(C)C(C)(C)C (configuration not stated)
79.5

Fill in growth for record `CC(=C(c1ccc(OCCN2CCCC2)cc1)c1ccc(OCCN2CCCC2)cc1)c1ccc(Cl)cc1`
-48.6

Fill in growth for record `O=C(CCCCCCNC(=O)C(O)(O)C(F)(F)F)Nc1ccc(-c2ccccc2)cc1`
23.6

Fill in growth for record `CN(C)c1ccc(-c2cc(-c3c[nH]c4ccccc34)nc(N)c2C#N)cc1`
30

Fill in growth for record `C#CCN(C)CCCOc1ccc(NC(=O)CCCCCCCCC(=O)NO)cc1Cl`
30.5

* * *

System: MCF7 breast
Test: NCI-60 one-dose screen, 48 h
Conditions: 10 µM unless noted
This is part of a sample that, as a whole, favours compounds with a hit. Of some 83,000 tested, about 20% had one in any assay. Calls of active or inactive are those of the source. How the source made its calls: active means growth percent below 10; inactive means the rest.
Respond using exactly one of the listed classes: True for active, False for inactive

Answered cases to consult:
Molecule | Category
Cn1ncc2ncc(-c3ccc4ncc(C#N)c(N5CCc6cc(F)c(Cl)cc65)c4c3)cc21 | True
C=C1CCc2nc(SCC(=O)O)ccc2N1 | False
COc1ccc(/C=N/NC(=O)CSc2nc(-c3cnccn3)cc(-c3cccs3)c2C#N)cc1OC | False

Give the logged outcome of this assay for the following molecule: `Cc1nc(/N=C(N)/N=C(\N)c2cccc(Br)c2)sc1C`
False

Give the logged outcome of this assay for the following molecule: `CN1CCN(Cc2ccc(NC(=O)c3cncc(C#Cc4cnc(N)nc4)c3)cc2C(F)(F)F)CC1`
False

Give the logged outcome of this assay for the following molecule: `C[C@]12CC[C@H]3[C@@H](CC=C4C[C@@H](O)CC[C@@]43C)[C@@H]1CC[C@@H]2[C@](C)(O)CCc1cccnc1`
False

Give the logged outcome of this assay for the following molecule: `COc1ccc2c(c1)c(/C=N/Nc1ccnc3cc(Cl)ccc13)cn2C`
True

Give the logged outcome of this assay for the following molecule: `COc1ccc(N2CCN(C3=C(Cl)C(=O)c4ncccc4C3=O)CC2)cc1`
True

Give the logged outcome of this assay for the following molecule: `Cc1ccc2c(n1)C(=O)C(Cl)=C(Nc1ccc(C(C)C)cc1)C2=O`
True

Give the logged outcome of this assay for the following molecule: `O=C(CCCCCCNC(=O)C(O)(O)C(F)(F)F)Nc1nc2ccccc2s1`
True

Give the logged outcome of this assay for the following molecule: `CCCCc1nc2c(N)nc3ccccc3c2n1Cc1cccc(CN)c1`
False

Give the logged outcome of this assay for the following molecule: `CCOC(=O)c1c(NC(=O)c2ccc(C(F)(F)F)cc2)sc2c3c(ccc12)OCN(C)C3`
True

Give the logged outcome of this assay for the following molecule: `CCCCc1nc2c(N)nc3ccccc3c2n1Cc1ccc(OC)cc1`
False

* * *

Reported growth values for the following compounds.
System: NCI-H226 lung
Test: NCI-60 one-dose screen, 48 h (100 = growth as untreated, 0 = no growth, -100 = all killed)
Settings: 10 µM unless noted
This is part of a sample that, as a whole, favours compounds with a hit. Of some 83,000 tested, about 20% had one in any assay.
Supply the numeric figure in %, leaving out any unit text.

Known growth results, listed for orientation:
Compound structure string | Value units | Readout value
O=C(O)CC1CCN(c2ccc3nnc(Cl)n3n2)CC1 | % | 98.7
C#CCOc1cccc(/C(N)=N/C(N)=N/c2nc3ccccc3s2)c1 | % | 68.1

API: the following record is the query input.
Fill in growth for record `O=C(CSc1nc2ccccc2c(=O)n1CCc1ccccc1)Nc1ccc(S(=O)(=O)Nc2ccc(Cl)nn2)cc1`
88.1

* * *

Test system: COLO 205 colon
Assay: NCI-60 one-dose screen, 48 h
Settings: 10 µM unless noted
Compounds without any hit were thinned out: in the full panel of roughly 83,000, 20% have a hit. Activity calls are given as the source filed them. The calls were made as follows: active = growth percent below 10; inactive = the rest.
Respond using exactly one of the listed classes: Y = active, N = inactive

Compound | Category
O=C(CSc1nc2ccccc2c(=O)n1-c1ccc(Cl)cc1)N/N=C/c1ccc(Oc2ccc(Cl)cc2)cc1 | N

Give the logged outcome of this assay for the following compound: `CN(C)c1cccc2c(S(=O)(=O)Nc3cccc(-c4csc(NC(=O)CCCCCN5CCN(CCO)CC5)n4)c3)cccc12`
N

* * *

System: RXF 393 renal
Assay: NCI-60 one-dose screen, 48 h (100 = growth as untreated, 0 = no growth, -100 = all killed)
Conditions: 10 µM unless noted
Compounds without any hit were thinned out: in the full panel of roughly 83,000, 20% have a hit.
Binary classification by growth, with 40% as an inclusive lower bound for true (1); all other cases are false (0).

Answered cases to consult:
Compound | Category
COCCOc1ccc2ncc(C#Cc3cncc(C(=O)Nc4ccc(CN5CCN(C)CC5)c(C(F)(F)F)c4)c3)n2n1 | false (0)
CC(=O)Nc1ccccc1-c1nc2ccccc2s1 | true (1)
O=[N+]([O-])c1ccc(NC(=S)NNC(=S)Nc2ccc(F)cc2)cc1 | true (1)
COC(=O)c1cccc(NC2=CC(=O)C(C)=C(C)C2=O)c1 | true (1)

Test whether the compound `O=C1C(N2CCN(c3ccccc3)CC2)=C(Cl)C(=O)c2ncccc21` records growth of 40% or higher.
false (0)

Test whether the compound CN1CC[C@@H]2[C@@]3(C)CC[C@H](O)C(C)(C)[C@@H]3CC[C@@]2(C)[C@]2(C)CC[C@@]3(CO)CCC(C)(C)C[C@@H]3C12 (stereo not given in full) records growth of 40% or higher.
true (1)

Test whether the compound `COc1ccc2[nH]cc(-c3nc(N)nnc3-c3cn(C)c4ccc(Br)cc34)c2c1` records growth of 40% or higher.
false (0)

Test whether the compound `N#Cc1c(-c2cccs2)cc(-c2cnccn2)nc1SCC(=O)N/N=C/c1cccs1` records growth of 40% or higher.
false (0)

Test whether the compound `Cc1ccc(C(=O)Nc2ccc(CNCCN3CCNCC3)c(C(F)(F)F)c2)cc1C#Cc1cnc2cccnn12` records growth of 40% or higher.
false (0)

* * *

Tested on: HCC-2998 colon
Assay: NCI-60 one-dose screen, 48 h (100 = growth as untreated, 0 = no growth, -100 = all killed)
Settings: 10 µM unless noted
Compounds without any hit were thinned out: in the full panel of roughly 83,000, 20% have a hit. Activity calls are given as the source filed them. How the source made its calls: active means growth percent below 10; inactive means the rest.
Measurement name: growth

Compound | Study target | Readout value
C/C(=C(/C)C1CC1CCNC1CCC(NC(=O)OC(C)(C)C)CC1)c1ccccc1 (configuration not stated) | HCC-2998 colon | -55.6% (active)
O=C(N/N=C/c1cc2ccccc2nc1Cl)c1cc(-c2nc3ccccc3[nH]2)nc2ccccc12 | HCC-2998 colon | 104% (inactive)
COc1cc(NC(=O)Nc2cccc(-c3cc(=O)c4c(OC)c(OC)c(OC)cc4o3)c2)cc(OC)c1OC | HCC-2998 colon | 60.7% (inactive)
OCC(Nc1ncnc2ccc(-c3cnc4cnccn34)cc12)c1ccccc1 (configuration not stated) | HCC-2998 colon | 82.9% (inactive)
CCOC(=O)c1cccnc1Nc1ccc(NC(=O)Nc2ccc(Cl)c(C(F)(F)F)c2)cc1 | HCC-2998 colon | 50.4% (inactive)
CC(=O)OCCCCN1C=C/C(=C\C(=O)n2ccc3ccccc32)c2ccccc21 | HCC-2998 colon | 112% (inactive)

Fill in growth for record `C#C[C@]1(O)CC[C@H]2[C@@H]3CC=C4c5sc(N(C)c6ccccc6)nc5CC[C@]4(C)[C@H]3CC[C@@]21C`
109% (inactive)

Fill in growth for record `CN(C)c1cccc2c(S(=O)(=O)Nc3cccc(-c4csc(NC(=O)CCCCCN5CCN(CCO)CC5)n4)c3)cccc12`
90.3% (inactive)

Entry source: PubChem BioAssay (NCI)
